- TEST_NAME: qHTS of pediatric cancer cell lines to identify multiple opportunities for drug repurposing: Confirmatory screen for BT-12 cells (AID 1347112);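 further: viability read after 48 h of compound exposure; nearly all actives have a fitted effect of over 55% in size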
- PROTOCOL_CONDITIONS: BT-12 rhabdoid tumor cells, viability; series mostly up to 45.9 µM
- Procedure: Drug repurposing or repositioning has been offered as a strategy for drug development in oncology programs. […] [1] Shen, M et al. Quantitative high-throughput phenotypic screening of pediatric cancer cell lines identifies multiple opportunities for drug repurposing. […] Cells were assayed in growth media at a density of 500-1,000 cells/well. […] After a 15 min incubation at room temperature, samples were analyzed for luminescence intensity using a ViewLux High-throughput CCD imager equipped with clear filters.
Results filed as inconclusive are left out. Calls of active or inactive are those of the source. The call rests on the fitted dose curve; in most records, active means well fitted cell-killing curve with a large enough effect; inconclusive means small, poorly fitted or top-dose-only effect; inactive means flat fitted curve, though single readings scatter.
Log the outcome using a class from 1 (yes) (active), 0 (no) (inactive)

Some solved entries appear below for comparison.
O=C1c2c(O)cc(O)cc2OC(c2ccc(O)c(O)c2)C1O (stereo unspecified)	0 (no)
c1cnc2cc3c(cc2n1)C1CNCC3C1	0 (no)
CCN(CCO)CCCC(C)Nc1ccnc2cc(Cl)ccc12 (stereo unspecified)	0 (no)
CN(C)c1ccc2nc3ccc(=[N+](C)C)cc-3sc2c1	1 (yes)
O=C(CCc1ccc(O)cc1)c1c(O)cc(O)cc1O	0 (no)

Okay, next one:
Task: Dear all, I need the recorded test outcome for `CCOc1cc(CC(=O)N[C@@H](CC(C)C)c2ccccc2N2CCCCC2)ccc1C(=O)O` , thank you.
Output: 0 (no)
